ASSAY_COMMENT: Viability qHTS for spleen associated tyrosine kinase inhibitor (SYKi) naive MV4-11 cells (AID 1963823); note: nearly all actives have a fitted effect of over 40% in size
RUN_PARAMETERS: MV4-11 AML viability, CellTiter-Glo luminescence, 72 h; series mostly up to 45 µM
Results filed as inconclusive are left out. Activity calls are given as the source filed them. Calls come from the whole dose curve; as a rule, active = well fitted cell-killing curve with a large enough effect; inconclusive = small, poorly fitted or top-dose-only effect, or effect the other way; inactive = no such curve, though single readings can be large or run the other way.
Return exactly one item of true for active, false for inactive

Exam item: Name the outcome recorded for `CN(C)S(=O)(=O)c1ccc(NC(=S)N2CCC(C(O)(c3ccccc3)c3ccccc3)CC2)cc1` in the assay.
Marked response: true

Exam item: Name the outcome recorded for `CNC(=O)[C@@H](c1ccccc1)N1CCc2cc(OC)c(OC)cc2[C@@H]1CCc1ccc(C(F)(F)F)cc1` in the assay.
Marked response: true

Exam item: Name the outcome recorded for C=C1C(=O)OC2C1CCC(=C)C1CC(OC(C)=O)C(=C)C12 (stereo not given) in the assay.
Marked response: true

Exam item: Name the outcome recorded for CC1CCC2C(C)(C)C(O)CCC2(C)C12Cc1c(O)cc3c(c1O2)CN=C3N (stereo not given) in the assay.
Marked response: false

Exam item: Name the outcome recorded for CC(C(=O)O)c1ccc2c(c1)CC(=O)c1ccccc1S2 (stereo not given) in the assay.
Marked response: false

Exam item: Name the outcome recorded for C=CCOc1ccccc1OCC(O)CNC(C)C (stereo not given) in the assay.
Marked response: false

Exam item: Name the outcome recorded for `CNC(=O)[C@H]1O[C@@H](n2cnc3c(NCc4cccc(I)c4)nc(Cl)nc32)[C@H](O)[C@@H]1O` in the assay.
Marked response: true

Exam item: Name the outcome recorded for `COC[C@H](NC(=O)c1cnc(C)s1)C(=O)N[C@@H](COC)C(=O)N[C@@H](Cc1ccccc1)C(=O)[C@@]1(C)CO1` in the assay.
Marked response: true

Exam item: Name the outcome recorded for `COc1ccc(Cn2ccc3ccc(C(=O)NO)cc32)cc1` in the assay.
Marked response: true

Exam item: Name the outcome recorded for `COc1ccc(S(=O)(=O)Nc2cccnc2Nc2ccc(O)cc2)cc1` in the assay.
Marked response: true

Exam item: Name the outcome recorded for `O=C(/C=C/c1ccc(O)cc1)OC[C@H]1O[C@H](O[C@@]2(CO)O[C@@H](CO)[C@H](O)[C@H]2O)[C@H](O)[C@@H](O)[C@@H]1O` in the assay.
Marked response: false

Exam item: Name the outcome recorded for CC1[C@@H](O)[C@@H](O)C2[C@]3(C)C(C[C@H]4OC(=O)[C@H](O)[C@]1(O)[C@@]24C)C(C)(O)C[C@H](O)[C@H]3O (stereo not given in full) in the assay.
Marked response: false

Exam item: Name the outcome recorded for CC(C)CCCC(C)N (stereo not given) in the assay.
Marked response: false

Exam item: Name the outcome recorded for `CC1(C)OCCn2c1nc1c(N3CCOCC3)nc(-c3cnc(N)nc3)nc12` in the assay.
Marked response: true

Exam item: Name the outcome recorded for `C[C@@H]1CCC[C@H](C)N1` in the assay.
Marked response: false

Exam item: Name the outcome recorded for CC(C)NCC(O)c1ccc(O)c(O)c1 (stereo not given) in the assay.
Marked response: false

Exam item: Name the outcome recorded for `CCCOc1ccn2c(C(C)=O)cc(-c3ccccc3S(C)(=O)=O)c2c1` in the assay.
Marked response: true

Exam item: Name the outcome recorded for `CC(=O)O[C@@H]1[C@@H](O)[C@H](O[C@H]2CC[C@]34C[C@]35CC[C@]3(C)[C@@H]([C@@]6(C)CC[C@@H](C(C)(C)O)O6)[C@@H](O)C[C@@]3(C)[C@@H]5C[C@H](O[C@@H]3O[C@H](CO)[C@@H](O)[C@H](O)[C@H]3O)[C@H]4C2(C)C)OC[C@H]1O` in the assay.
Marked response: false

Exam item: Name the outcome recorded for `C[C@@]12C(=O)OC(=O)[C@]1(C)[C@H]1CC[C@@H]2O1` in the assay.
Marked response: true

Exam item: Name the outcome recorded for `NCCCC[C@H](N[C@@H](CCc1ccccc1)C(=O)O)C(=O)N1CCC[C@H]1C(=O)O` in the assay.
Marked response: false

Exam item: Name the outcome recorded for CC(CCc1ccc2c(c1)OCO2)NN (stereo not given) in the assay.
Marked response: false

Exam item: Name the outcome recorded for `CC(C)n1nc(-c2cc3cc(O)ccc3[nH]2)c2c(N)ncnc21` in the assay.
Marked response: true

Exam item: Name the outcome recorded for CC1(CN2CCC(n3c(=O)[nH]c4ccccc43)CC2)OCc2ccccc2-n2cccc21 (stereo not given) in the assay.
Marked response: true

Exam item: Name the outcome recorded for `Cc1cc(CS(=O)(=O)c2ccccc2)cc(OCc2ccc(CN3CCC[C@@H]3CO)cc2)c1` in the assay.
Marked response: true

Exam item: Name the outcome recorded for CC(=O)c1c(O)cc2c(c1C)C(=O)CC(O)C2 (stereo not given) in the assay.
Marked response: false

Exam item: Name the outcome recorded for `N#C/C(=C\c1ccc(O)c(O)c1)C(=O)NCc1ccccc1` in the assay.
Marked response: true

Exam item: Name the outcome recorded for `C=C1[C@H](OC(C)=O)[C@H]2[C@@H](OC(=O)c3ccccc3)[C@@H](C)C[C@]2(O)[C@@H](OC(C)=O)[C@H](C)/C=C/C(C)(C)C(=O)[C@H](OC(C)=O)[C@H]1OC(C)=O` in the assay.
Marked response: false

Exam item: Name the outcome recorded for NC1CCN(c2nc3c(cc2F)c(=O)c(C(=O)O)cn3-c2ccc(F)cc2F)C1 (stereo not given) in the assay.
Marked response: false

Exam item: Name the outcome recorded for CC1CCC2(C(=O)O)CCC3(C)C(=CCC4C5(C)CCC(OC(=O)/C=C/c6ccccc6)C(C)(C)C5CCC43C)C2C1C (stereo not given) in the assay.
Marked response: false

Exam item: Name the outcome recorded for `[O-][n+]1cccc(/C(Cl)=N/OC[C@@H](O)CN2CCCCC2)c1` in the assay.
Marked response: false

Exam item: Name the outcome recorded for `C/C=C/C=C/C(O)=C1/C(=O)[C@]2(C)C(=O)[C@@](C)(O)[C@H]1[C@H]([C@@]1(C)OC(=O)C(C)=C1O)[C@H]2C(=O)CC/C=C/C` in the assay.
Marked response: false

Exam item: Name the outcome recorded for `C#Cc1ccc(-c2ccccc2F)cc1` in the assay.
Marked response: false

Exam item: Name the outcome recorded for CC1CC2(O)OC(=O)C3=C2C(CCC3)[C@@]12C[C@@H](c1ccoc1)OC2=O (stereo not given in full) in the assay.
Marked response: true

Exam item: Name the outcome recorded for CC(C)C1CCC(C(=O)N[C@@H](Cc2ccccc2)C(=O)O)CC1 (stereo not given in full) in the assay.
Marked response: false

Exam item: Name the outcome recorded for CC(=O)N(CC(O)CO)c1c(I)c(C(=O)NCCO)c(I)c(C(=O)NCC(O)CO)c1I (stereo not given) in the assay.
Marked response: false

The measured values listed here are drawn from PubChem BioAssay (NCATS).
